biological target: PD-L1 (Homo sapiens (Human)); experiment: PD-L1 whole blood internalization assay; settings: 24 HR, PD-L1 expression on CD14+ cells, human interferon γ
pIC50: −log10 of the molar value.
resultType: pIC50

Below: 4 compounds and their reported pIC50.
CN(C)C(=O)CCCCN1CCc2c(nc(C(=O)Nc3cccc(-c4cccc(NC(=O)c5nc6c(n5C)CCN(CCC57CCC(C(=O)O)(CC5)C7)C6)c4Cl)c3Cl)n2C)C1    7.00 to 8.00
Cc1c(NC(=O)c2nc3c(n2C)CCNC3)cccc1-c1cccc(NC(=O)c2nc3c(n2C)CCN(CCC24CCC(C(=O)O)(CC2)C4)C3)c1Cl    7.00 to 8.00
Cc1c(NC(=O)c2nc3c(n2C)CCN(C[C@@H](C)O)C3)cccc1-c1cccc(NC(=O)c2nc3c(n2C)CCN(CCC24CCC(C(=O)O)(CC2)C4)C3)c1Cl    7.00 to 8.00
Cn1c(C(=O)Nc2cccc(-c3cccc(NC(=O)c4nc5c(n4C)CCN(C4CCN(C(N)=O)CC4)C5)c3Cl)c2Cl)nc2c1CCN(CCC13CCC(C(=O)O)(CC1)C3)C2    7.00 to 8.00

Continue with the compound presented below.
Entry under review: `Cn1c(C(=O)Nc2cccc(-c3cccc(NC(=O)c4nc5c(n4C)CCN(CCC46CCC(C(=O)O)(CC4)C6)C5)c3Cl)c2Cl)nc2c1CCN(CCc1ccc(C(=O)O)cc1)C2` . Reported pIC50?
6.30 to 7.00

====

Molecular target: PD-L1 (Homo sapiens (Human), UniProt Q9NZQ7)
Sequence (Q9NZQ7 19-290): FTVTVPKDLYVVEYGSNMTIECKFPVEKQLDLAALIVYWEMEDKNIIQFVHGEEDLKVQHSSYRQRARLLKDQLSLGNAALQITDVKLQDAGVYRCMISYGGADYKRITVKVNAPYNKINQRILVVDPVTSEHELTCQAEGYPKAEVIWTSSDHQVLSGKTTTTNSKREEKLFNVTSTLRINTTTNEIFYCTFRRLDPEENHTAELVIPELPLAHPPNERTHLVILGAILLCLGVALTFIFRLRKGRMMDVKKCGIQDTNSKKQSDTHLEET
Experiment: PD-L1 whole blood internalization assay
Conditions: 24 HR, PD-L1 expression on CD14+ cells, human interferon γ
Procedure: Example D. PD-L1 Whole Blood Internalization Assay To determine PD-L1 internalization in human whole blood, normal human blood (Biological Specialty Corp, Colmar. Pa.) was incubated in the presence or absence of a concentration range of test compounds and 1 ng/ml human interferon γ (R&D Systems Inc. Minn. […] Cells were gated on CD14+(BD Biosciences) and PD-L1 expression determined by mean fluorescence intensity (MFI) (BD LSRFortessa™ X-20). […]
resultType: IC50

Below: 2 compounds and their reported IC50.
Cc1c(NC(=O)c2nc3c(n2C)CCN(CC24CCC(C(=O)O)(CC2)C4)C3)cccc1-c1cccc(NC(=O)c2nc3c(n2C)CCN(CCC24CCC(C(=O)O)(CC2)C4)C3)c1Cl    100 to 500 nM
Cn1c(C(=O)Nc2cccc(-c3cccc(NC(=O)c4nc5c(n4C)CCN(C(CO)CO)C5)c3Cl)c2Cl)nc2c1CCN(CCC13CCC(C(=O)O)(CC1)C3)C2    10 to 100 nM

Continue with the compound presented below.
Entry under review: `Cn1c(C(=O)Nc2cccc(-c3cccc(NC(=O)c4nc5c(n4C)CCN(CCC46CCC(C(=O)O)(CC4)C6)C5)c3Cl)c2Cl)nc2c1CCN(CCCO)C2` . Reported IC50?
10 to 100 nM
